All values here come from ChEMBL document CHEMBL1961873.

# tested.target: Tyrosine-protein kinase ABL1 (Homo sapiens) (UniProt P00519)
# Sequence (P00519 whole entry): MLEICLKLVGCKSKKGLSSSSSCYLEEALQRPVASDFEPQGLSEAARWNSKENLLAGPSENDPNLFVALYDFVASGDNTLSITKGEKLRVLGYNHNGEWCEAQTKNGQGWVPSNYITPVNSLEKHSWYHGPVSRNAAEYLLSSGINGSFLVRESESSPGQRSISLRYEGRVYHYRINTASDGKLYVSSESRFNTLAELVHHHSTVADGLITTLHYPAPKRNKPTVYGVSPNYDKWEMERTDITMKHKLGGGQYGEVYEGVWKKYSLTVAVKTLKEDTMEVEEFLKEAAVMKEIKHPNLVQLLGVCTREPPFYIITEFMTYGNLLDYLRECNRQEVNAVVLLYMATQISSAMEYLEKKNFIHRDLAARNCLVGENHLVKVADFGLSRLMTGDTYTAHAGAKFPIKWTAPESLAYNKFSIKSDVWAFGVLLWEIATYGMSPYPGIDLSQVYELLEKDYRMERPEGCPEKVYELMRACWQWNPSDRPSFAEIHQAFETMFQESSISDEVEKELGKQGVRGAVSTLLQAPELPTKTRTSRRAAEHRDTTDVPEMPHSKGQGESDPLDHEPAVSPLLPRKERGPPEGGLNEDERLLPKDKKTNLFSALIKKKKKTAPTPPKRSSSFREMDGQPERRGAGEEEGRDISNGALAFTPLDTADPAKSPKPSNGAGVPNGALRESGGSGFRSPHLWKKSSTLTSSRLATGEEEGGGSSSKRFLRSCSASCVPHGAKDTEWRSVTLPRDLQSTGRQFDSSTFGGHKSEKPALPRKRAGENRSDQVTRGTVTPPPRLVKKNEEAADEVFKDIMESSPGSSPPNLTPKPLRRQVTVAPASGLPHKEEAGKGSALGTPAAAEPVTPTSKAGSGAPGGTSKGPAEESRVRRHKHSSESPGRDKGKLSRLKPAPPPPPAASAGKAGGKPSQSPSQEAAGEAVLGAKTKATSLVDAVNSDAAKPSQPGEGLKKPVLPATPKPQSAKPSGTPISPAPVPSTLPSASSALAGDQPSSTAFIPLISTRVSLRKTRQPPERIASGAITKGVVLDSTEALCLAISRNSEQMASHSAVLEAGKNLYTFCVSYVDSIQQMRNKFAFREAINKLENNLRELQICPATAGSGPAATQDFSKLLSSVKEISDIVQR
# condition.description: at 0.1 µM
# Description: GSK_PKIS: ABL1 mean inhibition at 0.1 uM [Nanosyn]
measurement.type: inhibition
# output: numeric value plus its unit

O=C1Nc2ccccc2/C1=C/Nc1ccc(-n2cncn2)cc1; 1.87%
Cc1ccc(C(=O)NC(C)C)cc1-c1ccc(C(=O)NCC2CC2)cc1; 0.14%
CCc1ccc(Oc2nccc(-c3c(-c4ccc(F)cc4)ncn3C3CCNCC3)n2)cc1; 5.79%
N#Cc1ccc(Oc2nccc(-c3c(-c4ccc(F)cc4)ncn3C3CCNCC3)n2)cc1; 3.72%
CN(C)c1ccc2c(c1)/C(=C/Nc1ccc(S(N)(=O)=O)cc1)C(=O)N2; 2.76%

Let us move to another entry and its inhibition.
Looking up COc1ccc(C2=C(N3CCc4ccccc43)C(=O)NC2=O)cc1 , I see its inhibition listed as 5.83%
